Target Under Test: … (SEQ ID NO: 1)-HLA-A*02 complex (human)
Assay Protocol: SPR (BIAcore) or BLI (Octet) per Example 3, immobilised biotinylated pHLA, 25 C
Classify: label 1 when Kd is strictly less than 0.1 nM; label 0 when Kd is not.

INSERT INTO assay_data (binder, cat) VALUES
  ('ImmTAC molecule a28b57 (TCR-anti-CD3 fusion) (TCR, part only; not given: anti-CD3 scFv, linker, constant regions, not shown: a dimerising Fc or GST) TCR alpha, part: GDAKTTQPNSMESNEEEPVHLPCNHSTISGTDYIHWYRQLPSQGPEYVIHGLTSNVNNRMASLAIAEDRKSSTLILHRATLRDAAVYYCILILGHSRAGNYIATFGKGTKLSVIP TCR beta, part: DGGITQSPKYLFRKEGQNVTLSCEQNLNHDAMYWYRQDPGQGLRLIYYSQIMGDEQKGDIAEGYSVSREKKESFPLTVTSAQKNPTAFYLCASSWWTSGASPISFGPGTRLTVT', 'label 1'),
  ('ImmTAC molecule a79b73 (TCR-anti-CD3 fusion) (TCR, part only; not given: anti-CD3 scFv, linker, constant regions, not shown: a dimerising Fc or GST) TCR alpha, part: GDAKTTQPNSMESNEEEPVHLPCNHSTISGTDYIHWYRQLPSQGPEYVIHGLTSNVNNRMASLAIAEDRKSSTLILHRATLRDAAVYYCILILGHSRLGNYIATFGKGTKLSVIP TCR beta, part: DGGITQSPKYLFRKEGQNVTLSCEQNLNHDAMYWYRQDPGQGLRLIYYSQIMGDEQKGDIAEGYSVSREKKESFPLTVTSAQKNPTAFYLCASSWWTGGAAPISFGPGTRLTVT', 'label 0'),
  ('ImmTAC molecule a79b64 (TCR-anti-CD3 fusion) (TCR, part only; not given: anti-CD3 scFv, linker, constant regions, not shown: a dimerising Fc or GST) TCR alpha, part: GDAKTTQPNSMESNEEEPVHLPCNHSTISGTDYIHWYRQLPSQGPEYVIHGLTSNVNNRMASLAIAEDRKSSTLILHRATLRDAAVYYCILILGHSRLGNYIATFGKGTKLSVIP TCR beta, part: DGGITQSPKYLFRKEGQNVTLSCEQNLNHDAMYWYRQDPGQGLRLIYYSQIMNDEQKGDIAEGYSVSREKKESFPLTVTSAQKNPTAFYLCASSWWTGGSAPIRFGPGTRLTVT', 'label 0'),
  ('ImmTAC molecule a28b58 (TCR-anti-CD3 fusion) (TCR, part only; not given: anti-CD3 scFv, linker, constant regions, not shown: a dimerising Fc or GST) TCR alpha, part: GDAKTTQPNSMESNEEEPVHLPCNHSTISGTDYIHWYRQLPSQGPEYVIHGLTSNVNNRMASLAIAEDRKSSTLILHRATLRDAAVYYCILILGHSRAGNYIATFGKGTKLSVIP TCR beta, part: DGGITQSPKYLFRKEGQNVTLSCEQNLNHDAMYWYRQDPGQGLRLIYYSQIMGDEQKGDIAEGYSVSREKKESFPLTVTSAQKNPTAFYLCASSWWTGGSSPISFGPGTRLTVT', 'label 1'),
  ('ImmTAC molecule a28b74 (TCR-anti-CD3 fusion) (TCR, part only; not given: anti-CD3 scFv, linker, constant regions, not shown: a dimerising Fc or GST) TCR alpha, part: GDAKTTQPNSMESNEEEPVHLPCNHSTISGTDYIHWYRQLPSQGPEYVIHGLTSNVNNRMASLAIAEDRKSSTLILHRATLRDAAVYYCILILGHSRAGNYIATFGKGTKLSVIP TCR beta, part: DGGITQSPKYLFRKEGQNVTLSCEQNLNHDAMYWYRQDPGQGLRLIYYSQIMGDEQKGDIAEGYSVSREKKESFPLTVTSAQKNPTAFYLCASSWWTGGASPIRFGPGTRLTVT', 'label 0'),
  ('ImmTAC molecule a79b69 (TCR-anti-CD3 fusion) (TCR, part only; not given: anti-CD3 scFv, linker, constant regions, not shown: a dimerising Fc or GST) TCR alpha, part: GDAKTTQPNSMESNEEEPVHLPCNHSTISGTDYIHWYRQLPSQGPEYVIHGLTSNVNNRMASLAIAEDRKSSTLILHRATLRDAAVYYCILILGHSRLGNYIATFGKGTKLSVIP TCR beta, part: DGGITQSPKYLFRKEGQNVTLSCEQNLNHDAMYWYRQDPGQGLRLIYYSQIMGDEQKGDIAEGYSVSREKKESFPLTVTSAQKNPTAFYLCASSWWTGGSAEIRFGPGTRLTVT', 'label 1'),
  ('ImmTAC molecule a79b58 (TCR-anti-CD3 fusion) (TCR, part only; not given: anti-CD3 scFv, linker, constant regions, not shown: a dimerising Fc or GST) TCR alpha, part: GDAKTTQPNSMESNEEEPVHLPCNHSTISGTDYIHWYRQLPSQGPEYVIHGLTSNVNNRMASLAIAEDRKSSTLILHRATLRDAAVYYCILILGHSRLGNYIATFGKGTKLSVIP TCR beta, part: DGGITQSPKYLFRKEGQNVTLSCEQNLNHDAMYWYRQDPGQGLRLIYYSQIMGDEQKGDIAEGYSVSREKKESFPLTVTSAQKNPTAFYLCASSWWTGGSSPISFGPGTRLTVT', 'label 1'),
  ('ImmTAC molecule a28b60 (TCR-anti-CD3 fusion) (TCR, part only; not given: anti-CD3 scFv, linker, constant regions, not shown: a dimerising Fc or GST) TCR alpha, part: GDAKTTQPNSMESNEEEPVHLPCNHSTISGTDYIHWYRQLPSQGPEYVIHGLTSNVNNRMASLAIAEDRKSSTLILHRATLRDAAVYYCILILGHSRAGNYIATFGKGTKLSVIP TCR beta, part: DGGITQSPKYLFRKEGQNVTLSCEQNLNHDAMYWYRQDPGQGLRLIYYSQIMGDEQKGDIAEGYSVSREKKESFPLTVTSAQKNPTAFYLCASSWWTGGASEISFGPGTRLTVT', 'label 0'),
  ('ImmTAC molecule a109b46 (TCR-anti-CD3 fusion) (TCR, part only; not given: anti-CD3 scFv, linker, constant regions, not shown: a dimerising Fc or GST) TCR alpha, part: GDAKTTQPNSMESNEEEPVHLPCNHSTISGTDYIHWYRQLPSQGPEYVIHGLTSNVNNRMASLAIAEDRKSSTLILHRATLRDAAVYYCILILGHSRLGNYQATFGKGTKLSVIP TCR beta, part: DGGITQSPKYLFRKEGQNVTLSCEQNLNHDAMYWYRQDPGQGLRLIYYSQIMGDEQKGDIAEGYSVSREKKESFPLTVTSAQKNPTAFYLCASSWWTGGSAPIRFGPGTRLTVT', 'label 0'),
  ('ImmTAC molecule a79b76 (TCR-anti-CD3 fusion) (TCR, part only; not given: anti-CD3 scFv, linker, constant regions, not shown: a dimerising Fc or GST) TCR alpha, part: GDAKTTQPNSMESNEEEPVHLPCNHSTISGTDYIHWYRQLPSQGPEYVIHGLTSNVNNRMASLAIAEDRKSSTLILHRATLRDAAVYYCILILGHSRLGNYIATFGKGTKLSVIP TCR beta, part: DGGITQSPKYLFRKEGQNVTLSCEQNLNHDAMYWYRQDPGQGLRLIYYSQIMGDEQKGDIAEGYSVSREKKESFPLTVTSAQKNPTAFYLCASSWWTGGSSPIRFGPGTRLTVT', 'label 1');
